Biological target: Progesterone receptor (Homo sapiens)
Test: Displacement of [1,2,6,7-3H]PG from human PR-LBD after 24 hrs by liquid scintillation counting
pIC50: −log10 of the molar value.
Values of pIC50 greater than or equal to 5 map to met; values below map to not met.

- Cpd smiles: "O=c1ccc2cc(-c3ccc(Cl)s3)ccc2o1"
  Class: "not met"
- Cpd smiles: "CCN(CC)c1cc2oc(=O)ccc2cc1-c1ccccc1"
  Class: "met"
- Cpd smiles: "CCN(CC)c1cc2oc(=O)ccc2cc1-c1cccs1"
  Class: "met"
- Cpd smiles: "Cn1c(C#N)ccc1-c1ccc2oc(=O)ccc2c1"
  Class: "not met"

* * *

Target: Progesterone receptor (Homo sapiens)
Sequence (whole entry): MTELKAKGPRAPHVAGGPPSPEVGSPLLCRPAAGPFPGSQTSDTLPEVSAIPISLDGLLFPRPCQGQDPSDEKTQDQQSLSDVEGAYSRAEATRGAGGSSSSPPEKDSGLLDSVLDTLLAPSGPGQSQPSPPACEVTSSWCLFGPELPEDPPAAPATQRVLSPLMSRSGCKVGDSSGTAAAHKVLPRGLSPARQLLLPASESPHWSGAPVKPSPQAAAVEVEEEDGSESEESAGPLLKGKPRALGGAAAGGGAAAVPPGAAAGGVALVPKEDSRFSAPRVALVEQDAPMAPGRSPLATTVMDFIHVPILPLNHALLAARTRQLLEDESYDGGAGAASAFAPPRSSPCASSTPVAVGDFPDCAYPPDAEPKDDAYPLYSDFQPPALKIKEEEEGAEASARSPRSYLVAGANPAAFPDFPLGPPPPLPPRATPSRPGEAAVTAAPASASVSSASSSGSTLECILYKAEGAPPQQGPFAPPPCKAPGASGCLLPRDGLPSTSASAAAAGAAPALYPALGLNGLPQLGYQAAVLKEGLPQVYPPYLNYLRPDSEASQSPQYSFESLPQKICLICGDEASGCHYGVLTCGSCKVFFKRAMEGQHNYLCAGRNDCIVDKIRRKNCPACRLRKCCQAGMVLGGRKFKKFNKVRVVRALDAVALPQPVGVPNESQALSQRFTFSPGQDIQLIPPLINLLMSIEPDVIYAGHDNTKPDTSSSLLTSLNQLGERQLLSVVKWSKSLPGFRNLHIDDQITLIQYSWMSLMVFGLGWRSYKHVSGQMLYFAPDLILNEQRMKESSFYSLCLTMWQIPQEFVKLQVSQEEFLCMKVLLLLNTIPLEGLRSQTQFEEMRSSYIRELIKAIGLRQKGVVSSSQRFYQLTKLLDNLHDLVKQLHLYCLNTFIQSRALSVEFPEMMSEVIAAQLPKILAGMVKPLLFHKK
Assay: Antagonist activity at human progesterone receptor expressed in CHO cells at 10^-6 M after 24 hrs by luciferase reporter gene assay
Format: functional, cell-based
Active and inactive are the calls of the source. The rule behind the calls is not given here.

- Cpd smiles: "CCN(CC)c1cc2oc(=O)ccc2cc1-c1ccccc1"
  Assayed system: "Progesterone receptor (Homo sapiens)"
  Activity: "Active"
- Cpd smiles: "Cn1c(C#N)ccc1-c1ccc2oc(=O)ccc2c1"
  Assayed system: "Progesterone receptor (Homo sapiens)"
  Activity: "Active"
- Cpd smiles: "CCN(CC)c1cc2oc(=O)ccc2cc1-c1cccs1"
  Assayed system: "Progesterone receptor (Homo sapiens)"
  Activity: "Active"
- Cpd smiles: "O=c1ccc2cc(-c3ccc(Cl)s3)ccc2o1"
  Assayed system: "Progesterone receptor (Homo sapiens)"
  Activity: "Active"
- Cpd smiles: "O=c1ccc2cc(-c3cccs3)ccc2o1"
  Assayed system: "Progesterone receptor (Homo sapiens)"
  Activity: "Active"

* * *

This listing pairs compounds with measured log10 of IC50.
Molecular target: Progesterone receptor (Homo sapiens)
Test: Antagonist activity at human progesterone receptor in T47D cells after 24 hrs by alkaline phosphatase assay
Format: functional, cell-based
Reported metric: log10 of IC50 (log10 of the value in nM)

- Cpd smiles: "Cn1c(C#N)ccc1-c1ccc2oc(=O)ccc2c1"
  Reported metric: "log10 of IC50"
  Value reported: 1.81
- Cpd smiles: "O=c1ccc2cc(-c3ccccc3)ccc2o1"
  Reported metric: "log10 of IC50"
  Value reported: 2.71
- Cpd smiles: "CCN(CC)c1cc2oc(=O)ccc2cc1-c1ccccc1"
  Reported metric: "log10 of IC50"
  Value reported: 2.70
- Cpd smiles: "CCN(CC)c1cc2oc(=O)ccc2cc1-c1ccc(N(C)C)cc1"
  Reported metric: "log10 of IC50"
  Value reported: 2.59
- Cpd smiles: "O=c1ccc2cc(-c3cc(F)cc(F)c3)ccc2o1"
  Reported metric: "log10 of IC50"
  Value reported: 2.75
- Cpd smiles: "CN(C)c1cc2oc(=O)ccc2cc1-c1ccccc1"
  Reported metric: "log10 of IC50"
  Value reported: 2.56
- Cpd smiles: "CCN(CC)c1cc2oc(=O)ccc2cc1-c1ccc(C#N)cc1"
  Reported metric: "log10 of IC50"
  Value reported: 2.70
- Cpd smiles: "O=c1ccc2cc(-c3cccc(-c4cccnc4)c3)ccc2o1"
  Reported metric: "log10 of IC50"
  Value reported: 4.45
- Cpd smiles: "CCOC(=O)c1cc2cc(-c3ccccc3)c(N(CC)CC)cc2oc1=O"
  Reported metric: "log10 of IC50"
  Value reported: 3.61
- Cpd smiles: "O=c1ccc2cc(-c3ccccc3)c(O)cc2o1"
  Reported metric: "log10 of IC50"
  Value reported: 3.11
- Cpd smiles: "CCN(CC)c1cc2oc(=O)ccc2cc1-c1ccc(Cl)cc1"
  Reported metric: "log10 of IC50"
  Value reported: 2.89
- Cpd smiles: "CN(C)c1ccc(-c2ccc3oc(=O)ccc3c2)cc1"
  Reported metric: "log10 of IC50"
  Value reported: 2.49
- Cpd smiles: "CN(C)c1cc2oc(=O)ccc2cc1-c1cccc(C#N)c1"
  Reported metric: "log10 of IC50"
  Value reported: 2.41
- Cpd smiles: "O=c1ccc2cc(-c3cccs3)ccc2o1"
  Reported metric: "log10 of IC50"
  Value reported: 2.73
